B1: tRNA (parent)
chain: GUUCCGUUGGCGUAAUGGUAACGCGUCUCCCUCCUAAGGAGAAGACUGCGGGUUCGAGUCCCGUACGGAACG

# Variants of: B1
# protocolDescription: yeast fitness relative to wild type (ratio to wild type); higher = fitter; tRNA-Arg(CCU), competitive growth, 37 C, YPD
Fewer inactive variants are shown than the library holds.
Decide using yeast fitness: a value greater than or equal to 0.7 is true (1), a smaller one is false (0).

// below: answered variants
mutationAnnotation	category
C5G A20U G56A	false (0)
G25C A65U	true (1)
G12C A45U C62G A65G	false (0)
C24G C66G G68C	false (0)
C5A G23C A65G	false (0)

Problem: API: above_or_equal(metric=yeast fitness, cutoff=0.7) for item A21G U35G A57C G67C
Solution: false (0)

Problem: API: above_or_equal(metric=yeast fitness, cutoff=0.7) for item U3G C5A A20G C29U C31A C55U A57C
Solution: false (0)

Problem: API: above_or_equal(metric=yeast fitness, cutoff=0.7) for item C5U C30G U64A
Solution: false (0)

Problem: API: above_or_equal(metric=yeast fitness, cutoff=0.7) for item G9A A14G A20C A42C
Solution: false (0)

Problem: API: above_or_equal(metric=yeast fitness, cutoff=0.7) for item C24U A37C G50C A69U
Solution: false (0)

Problem: API: above_or_equal(metric=yeast fitness, cutoff=0.7) for item A20U C27G C29A A65G
Solution: false (0)

Problem: API: above_or_equal(metric=yeast fitness, cutoff=0.7) for item C5A G17A C66U
Solution: false (0)

Problem: API: above_or_equal(metric=yeast fitness, cutoff=0.7) for item C46U U59G
Solution: true (1)

Problem: API: above_or_equal(metric=yeast fitness, cutoff=0.7) for item C4G U13A
Solution: true (1)

Problem: API: above_or_equal(metric=yeast fitness, cutoff=0.7) for item A45U A69U
Solution: true (1)

Problem: API: above_or_equal(metric=yeast fitness, cutoff=0.7) for item C11U C22G A36G
Solution: false (0)

Hey, just so you know, these numbers are from the RNAGym collection of RNA variant scans (doi:10.1126/science.aae0568).
